So I've got a bunch of molecules here, and I need their pIC50 values.
molecular target: recombinant LRRK2 kinase (Homo sapiens); assay: LRRK2 kinase inhibition (Kinase-Glo luminescence); details: IC50 grade; 25 μmol/L ATP, LRRKtide, 30° C. 2 hours; read-out: Enzyme activity LRRK2
pIC50: −log10 of the molar value.

// lookup pIC50 for CNc1nc(Nc2ccc(C(=O)N3C[C@@H](C)O[C@@H](C)C3)cc2OC)nc2[nH]cc(C#N)c12 [Example 22]
7.00 to 8.00

Can you share its pIC50? I mean this molecule: CCNc1nc(Nc2cc(F)c(C(=O)N3CCOCC3)cc2OC)nc2[nH]cc(C#N)c12 [Example 6]
> 8.00

Suppose we examine the molecule CCNc1nc(Nc2cnn([C@H]3CCN(C4COC4)C[C@@H]3F)c2)nc2[nH]cc(C#N)c12 [Example 53] ; what pIC50 value has been reported?
> 8.00

pIC50 for CCNc1nc(Nc2ccc(C(=O)N3CCC(F)(F)CC3)cc2OC)nc2[nH]cc(C(F)(F)F)c12 [Example 110] ?
< 7.00

Give its pIC50 value. Item: CNc1nc(Nc2cn(C(C)C)nc2C)nc2[nH]cc(C#N)c12 [Example 30]
7.00 to 8.00

Look at this molecule and give its reported pIC50. Cc1nn(C(C)(C)C#N)cc1Nc1nc(OC2(C)CC2)c2c(C#N)c[nH]c2n1 [Example 94]
> 8.00

What value of pIC50 has been reported for the following molecule? COc1cc(C(=O)N2C[C@@H](C)O[C@@H](C)C2)ccc1Nc1nc(NC2(C)CC2)c2c(C#N)c[nH]c2n1 [Example 44]
7.00 to 8.00

Fill in: pIC50 of CNc1nc(Nc2cnn(CCOC)c2Cl)nc2[nH]cc(C#N)c12 [Example 59] is ___
> 8.00

----------
target: recombinant LRRK2 kinase (Homo sapiens, UniProt Q5S007); experiment: LRRK2 kinase inhibition (Kinase-Glo luminescence); conditions: IC50 grade; 25 μmol/L ATP, LRRKtide, 30° C. 2 hours; read-out: Enzyme activity LRRK2
Sequence (Q5S007 whole entry): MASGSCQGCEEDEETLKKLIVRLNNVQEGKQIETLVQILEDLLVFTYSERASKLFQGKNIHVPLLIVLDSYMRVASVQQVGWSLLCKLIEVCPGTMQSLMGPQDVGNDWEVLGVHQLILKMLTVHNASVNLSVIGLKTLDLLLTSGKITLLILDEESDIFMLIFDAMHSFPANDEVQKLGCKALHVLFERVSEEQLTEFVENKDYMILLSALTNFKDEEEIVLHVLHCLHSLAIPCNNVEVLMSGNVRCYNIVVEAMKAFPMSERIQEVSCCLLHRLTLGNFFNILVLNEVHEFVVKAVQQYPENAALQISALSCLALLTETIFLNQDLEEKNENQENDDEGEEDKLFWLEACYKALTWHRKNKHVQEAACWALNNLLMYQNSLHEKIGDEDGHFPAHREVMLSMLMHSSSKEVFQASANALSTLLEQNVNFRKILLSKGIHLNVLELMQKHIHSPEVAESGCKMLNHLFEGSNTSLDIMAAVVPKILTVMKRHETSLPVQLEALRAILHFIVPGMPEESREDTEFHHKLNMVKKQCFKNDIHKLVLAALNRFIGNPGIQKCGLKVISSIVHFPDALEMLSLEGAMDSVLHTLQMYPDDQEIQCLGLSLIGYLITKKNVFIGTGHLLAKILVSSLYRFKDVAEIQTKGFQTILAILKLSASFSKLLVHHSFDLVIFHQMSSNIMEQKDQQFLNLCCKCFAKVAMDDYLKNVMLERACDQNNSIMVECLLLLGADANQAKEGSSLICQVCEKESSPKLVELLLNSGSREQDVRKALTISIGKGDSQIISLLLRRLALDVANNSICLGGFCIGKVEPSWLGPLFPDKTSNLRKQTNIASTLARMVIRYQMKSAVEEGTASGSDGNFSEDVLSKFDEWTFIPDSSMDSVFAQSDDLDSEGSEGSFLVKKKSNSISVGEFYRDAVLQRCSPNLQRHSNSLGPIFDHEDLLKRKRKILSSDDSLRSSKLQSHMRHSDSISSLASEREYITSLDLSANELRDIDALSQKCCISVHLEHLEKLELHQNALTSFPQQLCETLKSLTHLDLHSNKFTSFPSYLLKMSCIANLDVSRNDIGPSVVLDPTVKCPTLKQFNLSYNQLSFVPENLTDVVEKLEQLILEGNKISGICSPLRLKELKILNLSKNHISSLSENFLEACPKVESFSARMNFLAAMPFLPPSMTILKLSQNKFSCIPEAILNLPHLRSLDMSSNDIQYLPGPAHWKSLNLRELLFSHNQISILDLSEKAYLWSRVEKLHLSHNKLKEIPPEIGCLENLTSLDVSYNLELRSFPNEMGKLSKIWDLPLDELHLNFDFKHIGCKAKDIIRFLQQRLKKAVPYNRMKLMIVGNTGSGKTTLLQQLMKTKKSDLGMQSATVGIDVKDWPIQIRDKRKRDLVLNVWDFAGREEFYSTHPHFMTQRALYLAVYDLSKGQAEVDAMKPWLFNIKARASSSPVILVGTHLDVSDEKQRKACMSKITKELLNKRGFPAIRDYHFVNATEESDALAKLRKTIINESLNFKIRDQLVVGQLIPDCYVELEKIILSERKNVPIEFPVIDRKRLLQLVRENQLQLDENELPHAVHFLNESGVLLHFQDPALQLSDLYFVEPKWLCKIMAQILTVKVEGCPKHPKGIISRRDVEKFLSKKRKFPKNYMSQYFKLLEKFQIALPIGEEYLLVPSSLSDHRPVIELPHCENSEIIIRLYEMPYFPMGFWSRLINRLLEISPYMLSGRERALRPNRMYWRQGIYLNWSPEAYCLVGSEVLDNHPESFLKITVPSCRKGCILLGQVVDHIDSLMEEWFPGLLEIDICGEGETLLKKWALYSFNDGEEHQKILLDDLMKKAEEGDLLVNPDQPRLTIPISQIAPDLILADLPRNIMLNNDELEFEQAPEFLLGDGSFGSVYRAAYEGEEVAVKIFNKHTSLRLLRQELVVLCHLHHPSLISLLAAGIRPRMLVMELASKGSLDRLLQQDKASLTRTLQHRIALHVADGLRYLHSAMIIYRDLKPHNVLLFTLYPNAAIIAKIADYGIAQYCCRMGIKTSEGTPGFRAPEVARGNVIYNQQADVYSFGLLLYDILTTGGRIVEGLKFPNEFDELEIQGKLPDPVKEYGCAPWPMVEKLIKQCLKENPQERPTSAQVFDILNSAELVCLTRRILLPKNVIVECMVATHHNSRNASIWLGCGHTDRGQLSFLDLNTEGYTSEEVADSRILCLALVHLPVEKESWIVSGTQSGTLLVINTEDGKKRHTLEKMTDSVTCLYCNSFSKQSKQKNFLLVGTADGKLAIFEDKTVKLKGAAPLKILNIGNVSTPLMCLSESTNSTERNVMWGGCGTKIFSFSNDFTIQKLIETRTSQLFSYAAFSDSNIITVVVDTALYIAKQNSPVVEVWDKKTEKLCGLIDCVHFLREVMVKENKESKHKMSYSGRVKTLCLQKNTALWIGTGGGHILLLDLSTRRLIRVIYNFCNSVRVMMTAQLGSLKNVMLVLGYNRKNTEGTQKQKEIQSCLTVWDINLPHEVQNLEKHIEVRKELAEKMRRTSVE
Experimental readout: IC50

I have this compound here, "CCNc1nc(Nc2cc(F)c(C(=O)N3CCC(N4CCOCC4)CC3)cc2OC)nc2[nH]cc(C#N)c12" , and I need its recorded IC50.
< 10 nM

Could you tell me which IC50 is on file for "CC1(Nc2nc(Nc3cnn([C@H]4CCN(C5COC5)C[C@@H]4F)c3)nc3[nH]cc(C#N)c23)CC1" ?
< 10 nM

What IC50 value was documented for this compound, "CCNc1nc(Nc2sc(C(C)(C)C#N)nc2C)nc2[nH]cc(C#N)c12" ?
10 to 100 nM

What measured IC50 goes with "COc1cc(C(=O)N2CCOCC2)c(F)cc1Nc1nc(NC2CC2)c2c(C#N)c[nH]c2n1" ?
10 to 100 nM

Sample "CCNc1nc(Nc2ccc(C(=O)N3CCN(C)CC3)cc2OC)nc2[nH]cc(C(F)(F)F)c12" — what was its IC50?
< 10 nM

Given the compound "CCNc1nc(Nc2ccc(C(=O)N3C[C@@H](C)O[C@@H](C)C3)cc2OC)nc2[nH]cc(C(F)(F)F)c12" , what is its reported IC50?
> 100 nM

Item "CCNc1nc(Nc2ccc(C(=O)N3CCC(F)(F)CC3)cc2OC)nc2[nH]cc(C#N)c12" has what recorded IC50?
< 10 nM

If you can, please state the reported IC50 value of "COc1cc(C(=O)N2CCC(N3CCOCC3)CC2)c(F)cc1Nc1nc(NC2CC2)c2c(C#N)c[nH]c2n1" .
10 to 100 nM

// query IC50 value for entry "COc1cc(C(=O)N2CCO[C@@H](C)C2)ccc1Nc1nc(OC2(C)CC2)c2c(C#N)c[nH]c2n1"
< 10 nM

Return reported IC50; argument: "Cc1c(Nc2nc(NC3(C)CC3)c3c(C#N)c[nH]c3n2)cnn1C"
< 10 nM

Report IC50 for "COc1cc(C(=O)NC2CCN(C(C)C)CC2)c(F)cc1Nc1nc(NC2(C)CC2)c2c(C#N)c[nH]c2n1" please.
10 to 100 nM

For "COc1cc(C(=O)N2CCOCC2)ccc1Nc1nc(O[C@H]2CCOC2)c2c(C#N)c[nH]c2n1" , what is its reported IC50?
< 10 nM

Would you mind telling me what IC50 value was observed for "CCNc1nc(Nc2cc(F)c(C(=O)NC3CCN(C(C)C)CC3)cc2OC)nc2[nH]cc(C#N)c12" ?
< 10 nM

# IC50 lookup, item "CNc1nc(Nc2ccc(C(=O)N3CCC(F)(F)CC3)cc2OC)nc2[nH]cc(C#N)c12"
< 10 nM

For "CNc1nc(Nc2cc(F)c(C(=O)NC3CCN(C)CC3)cc2OC)nc2[nH]cc(C#N)c12" , what is its reported IC50?
< 10 nM

Fill blank: measured IC50 of the compound "CCNc1nc(Nc2cnn(CCO)c2)nc2[nH]cc(C#N)c12" is ____.
< 10 nM

----------
target: recombinant LRRK2 kinase (Homo sapiens); experiment: LRRK2 kinase inhibition (Kinase-Glo luminescence); conditions: IC50 grade; 25 μmol/L ATP, LRRKtide, 30° C. 2 hours; read-out: Enzyme activity LRRK2
pIC50: −log10 of the molar value.
Hi there, I'd appreciate the recorded pIC50 for every entry that follows.

Requested field: pIC50. Item: CNc1nc(Nc2ccc(C(=O)NC3CCN(C4COC4)CC3)cc2OC)nc2[nH]cc(C#N)c12 [Example 61]
7.00 to 8.00

Requested field: pIC50. Item: CNc1nc(Nc2ccc(C(=O)N3CCO[C@H](C)C3)cc2OC)nc2[nH]cc(C#N)c12 [Example 20]
> 8.00

For the molecule COc1cc(C(=O)N2CCOCC2)ccc1Nc1nc(O[C@@H]2CCOC2)c2c(C#N)c[nH]c2n1 [Example 89] , what pIC50 is on record?
> 8.00

Entry COc1cc(C(=O)N2CCOCC2)ccc1Nc1nc(OC2CCOC2)c2c(C(F)(F)F)c[nH]c2n1 (centres unmarked) [Example 124] : reported pIC50 = ?
7.00 to 8.00

Can you share its pIC50? I mean this molecule: CCNc1nc(Nc2ccc(C(=O)N3CCC(N4CCOCC4)CC3)cc2OC)nc2[nH]cc(C(F)(F)F)c12 [Example 104]
> 8.00

# input molecule: CCNc1nc(Nc2ccc3c(c2)CN(C)C3=O)nc2[nH]cc(C(F)(F)F)c12 [Example 136] ; wanted: its pIC50
7.00 to 8.00

Record request: pIC50 value, item CNc1nc(Nc2ccc(C(=O)N3CCN(C4COC4)CC3)cc2OC)nc2[nH]cc(C#N)c12 [Example 57]
> 8.00

Could you share which pIC50 value was measured for CNc1nc(Nc2cnn(C(C)C)c2C)nc2[nH]cc(C#N)c12 [Example 31] ?
> 8.00

----------
molecular target: recombinant LRRK2 kinase (Homo sapiens, UniProt Q5S007); assay: LRRK2 kinase inhibition (Kinase-Glo luminescence); conditions: IC50 grade; 25 μmol/L ATP, LRRKtide, 30° C. 2 hours; read-out: Enzyme activity LRRK2
Experimental readout: IC50

Using the record for "COc1cc(C(=O)NC2CCN(C3COC3)CC2)c(F)cc1Nc1nc(NC2(C)CC2)c2c(C#N)c[nH]c2n1" , report its IC50.
10 to 100 nM

Requested read-out: IC50. Entry: "CCCNc1nc(Nc2cc(F)c(C(=O)N3CCC(N4CCOCC4)CC3)cc2OC)nc2[nH]cc(C#N)c12"
< 10 nM

Which IC50 is reported for this compound? "CCNc1nc(Nc2cc3c(cc2OC)N(C)C(=O)C(C)(C)O3)nc2[nH]cc(C#N)c12"
10 to 100 nM

So what does the record say about IC50 for "COc1cc(C(=O)N2C[C@@H](C)O[C@@H](C)C2)ccc1Nc1nc(OC2(C)CC2)c2c(C#N)c[nH]c2n1" ?
10 to 100 nM

Request the reported IC50 associated with "CCNc1nc(Nc2ccn(C)n2)nc2[nH]cc(C#N)c12"
< 10 nM

Quick one: IC50 for "CNc1nc(Nc2cc(F)c(C(=O)N3CCOCC3)cc2OC)nc2[nH]cc(C#N)c12" ?
< 10 nM

Endpoint output: IC50 of "CNc1nc(Nc2ccc(C(=O)N3CCN(C)C[C@H]3C)cc2OC)nc2[nH]cc(C#N)c12" . Value?
< 10 nM

// query IC50 value for entry "COc1cc(C(=O)NC2CCN(C)CC2)c(F)cc1Nc1nc(NC2(C)CC2)c2c(C#N)c[nH]c2n1"
< 10 nM

IC50 for "CCNc1nc(Nc2cc3c(cc2OC)CN(C)C3=O)nc2[nH]cc(C(F)(F)F)c12" ?
> 100 nM

# query: IC50 of entry COc1cc(C(=O)N2CCC(N3CCOCC3)CC2)ccc1Nc1nc(OC2CCOC2)c2c(C#N)c[nH]c2n1 (stereo not shown)
< 10 nM

Returns the measured IC50 for the input compound. Input: "CCNc1nc(Nc2cnn([C@H]3CCN(C4COC4)C[C@@H]3F)c2Cl)nc2[nH]cc(C#N)c12"
< 10 nM

Param item = "COc1cc(C(=O)N2CCC(N3CCOCC3)CC2)ccc1Nc1nc(OC(C)C)c2c(C#N)c[nH]c2n1" ; retrieve measured IC50.
< 10 nM

IC50 lookup needed for "COc1cc(C(=O)N2CCOCC2)c(F)cc1Nc1nc(NC2(C)CC2)c2c(C#N)c[nH]c2n1" , thanks.
< 10 nM

Which IC50 is listed for "Cc1nn(C(C)(C)C#N)cc1Nc1nc(NC2(C)CC2)c2c(C#N)c[nH]c2n1" ?
< 10 nM

Could you share which IC50 value was measured for "CCNc1nc(Nc2ccc(C(=O)NC3CCN(C4COC4)CC3)cc2OC)nc2[nH]cc(C#N)c12" ?
10 to 100 nM

May I ask what IC50 has been recorded for "CC1(Nc2nc(Nc3cnn([C@H]4CCN(C5COC5)C[C@@H]4F)c3Cl)nc3[nH]cc(C#N)c23)CC1" ?
< 10 nM

If you can, please state the reported IC50 value of "CCNc1nc(Nc2cn(C(C)(C)C#N)nc2C)nc2[nH]cc(C(F)(F)F)c12" .
< 10 nM

Reported IC50 for "COc1cc(C(=O)N2CCOCC2)ccc1Nc1nc(OC2CCOCC2)c2c(C#N)c[nH]c2n1" : what is it?
< 10 nM

What value of measured IC50 is listed for "CCNc1nc(Nc2ccc(C(=O)N3CCC(N4CCN(C)CC4)CC3)cc2OC)nc2[nH]cc(C(F)(F)F)c12" ?
< 10 nM

Returns the measured IC50 for the input compound. Input: "CCNc1nc(Nc2cc3c(cc2OC)C(=O)N(C)C3)nc2[nH]cc(C#N)c12"
< 10 nM

What does the data say about its IC50? Entry: "COc1cc(C(=O)N2CCOCC2)ccc1Nc1nc(OC(C)C)c2c(C#N)c[nH]c2n1"
< 10 nM

Fill in: IC50 of "F[C@H]1CN(C2COC2)CC[C@@H]1n1ncc(Nc2nc(NC3CC3)c3c(C(F)(F)F)c[nH]c3n2)c1Cl" is ___
10 to 100 nM

// lookup IC50 for "CCNc1nc(Nc2ccc(C(=O)N3CCO[C@H](C)C3)cc2OC)nc2[nH]cc(C#N)c12"
< 10 nM

Reported IC50 for "CNc1nc(Nc2ccc(C(=O)N3CCO[C@@H](C)C3)cc2OC)nc2[nH]cc(C#N)c12" : what is it?
< 10 nM

Recorded IC50 of "CNc1nc(Nc2cnn(CCO)c2)nc2[nH]cc(C#N)c12" , please.
< 10 nM

Suppose we examine the compound "CCNc1nc(Nc2cc3c(cc2Cl)C(=O)N(C)C3)nc2[nH]cc(C(F)(F)F)c12" ; what IC50 value has been reported?
> 100 nM

If you can, please state the reported IC50 value of "COc1cc(C(=O)N2CCOCC2)ccc1Nc1nc(NC2CC2)c2c(C(F)(F)F)c[nH]c2n1" .
< 10 nM

Can you share its IC50? I mean this compound: "CNc1nc(Nc2cn(C(C)(C)C(N)=O)nc2C)nc2[nH]cc(C#N)c12"
< 10 nM

Dear colleague, I am looking for the recorded IC50 of the following compound: "CCNc1nc(Nc2ccc(C(=O)N3CCN(C)C[C@H]3C)cc2OC)nc2[nH]cc(C#N)c12"
< 10 nM

Find the recorded IC50 belonging to "CNc1nc(Nc2cc(F)c(C(=O)NC3CCN(C4COC4)CC3)cc2OC)nc2[nH]cc(C#N)c12" and report it.
< 10 nM

Looking for the measured IC50 of "COc1cc(C(=O)N2CCO[C@@H](C)C2)ccc1Nc1nc(NC2(C)CC2)c2c(C#N)c[nH]c2n1" , can you help?
< 10 nM

Data origin, for the record: patent US11208412B2
